Taken from the supplement of paper PMC3545927.

Form field: furin cleavage Z-score (one value per entry).
tested-on: furin, P09958
Sequence (P09958 whole entry): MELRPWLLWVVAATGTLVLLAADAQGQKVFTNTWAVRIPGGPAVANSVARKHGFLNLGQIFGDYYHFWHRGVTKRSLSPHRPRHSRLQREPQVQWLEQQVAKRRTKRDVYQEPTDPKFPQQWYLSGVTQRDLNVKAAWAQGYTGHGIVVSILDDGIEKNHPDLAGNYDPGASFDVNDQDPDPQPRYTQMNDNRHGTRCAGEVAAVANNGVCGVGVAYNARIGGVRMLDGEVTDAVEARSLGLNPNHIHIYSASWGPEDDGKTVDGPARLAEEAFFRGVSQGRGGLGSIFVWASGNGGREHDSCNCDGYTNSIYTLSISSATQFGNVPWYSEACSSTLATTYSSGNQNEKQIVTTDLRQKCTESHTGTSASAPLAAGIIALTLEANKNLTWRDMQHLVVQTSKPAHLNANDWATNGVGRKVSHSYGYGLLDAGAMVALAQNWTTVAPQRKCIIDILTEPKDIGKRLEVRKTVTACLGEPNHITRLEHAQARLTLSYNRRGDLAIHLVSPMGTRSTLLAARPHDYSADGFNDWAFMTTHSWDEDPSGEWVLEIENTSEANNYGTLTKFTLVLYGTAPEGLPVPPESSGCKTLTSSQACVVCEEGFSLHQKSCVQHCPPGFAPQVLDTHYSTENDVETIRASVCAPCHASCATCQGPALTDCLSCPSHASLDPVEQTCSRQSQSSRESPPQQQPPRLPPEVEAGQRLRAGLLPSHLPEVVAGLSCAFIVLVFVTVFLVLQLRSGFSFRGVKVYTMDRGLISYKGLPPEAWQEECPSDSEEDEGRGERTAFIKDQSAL
test-summary: furin cleavage Z-score vs untreated control; higher = more cleavage, active = 3.5 or more, inactive = 1 or less, 8 variable residues between constant flanks;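 further: purified furin at 1:10 enzyme:substrate in 50 mM HEPES pH 7.5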
test-context: 7.5 min
Some of the results follow. How many sequences the whole screen found active is unknown.
When you answer, write just the number.

I have this sequence here, CAVSCCSMSYAGNASASA [HC2017] , and I need its recorded furin cleavage Z-score.
0.592

Subsequent entry: CAETPCSAHLAGNASASA [HC2472]
-0.0785

Subsequent entry: CAHPRRSRRSAGNASASA [FS-932]
8.18

Subsequent entry: CAASRVSRRSAGNASASA [FS-979]
5.49

Subsequent entry: CARKNRSTASAGNASASA [FS-3159]
4.98

Subsequent entry: CATTPCFGSWAGNASASA [HC66]
0.204

Subsequent entry: CAIALRLRRSAGNASASA [FS-32]
1.01

Subsequent entry: CARKNRSQIVAGNASASA [FS-1731]
0.382

***
I have this sequence here, CARGLDVSVIAGNASASA [HC870] , and I need its recorded furin cleavage Z-score.
1.35

Subsequent entry: CARKNRSFYAAGNASASA [FS-3222]
-0.489

Subsequent entry: CAVCWTVYHGAGNASASA [HC699]
-0.241

Subsequent entry: CALMGYIPLVAGNASASA [HC227]
0.341

Subsequent entry: CARKGRSYGSAGNASASA [FS-1902]
2.38

Subsequent entry: CAGDEVDGAGAGNASASA [CS5]
-1.72

Subsequent entry: CASPRDARRSAGNASASA [FS-1614]
-1.33
